Listed next: entries and their corresponding pIC50.
# protocol description: Inhibition of 20 uM ADP-induced platelet aggregation in human platelet-rich plasma
Would you please state pIC50, meaning minus log10 of the concentration in mol/L, as a bare number?

CN(C)c1cccc2c(S(=O)(=O)N[C@@H](CNC(=O)CCNC(=O)c3cc4cc(C(=N)N)ccc4o3)C(=O)O)cccc12 :: 7.19

Please turn your attention to the following entry.
Note to self: pIC50 recorded for N=C(N)c1ccc2oc(C(=O)NCCC(=O)NC[C@H](NS(=O)(=O)c3ccc(I)cc3)C(=O)O)cc2c1 was 7.60

###

# system: Integrin alpha-IIb/beta-3 (Homo sapiens, UniProt P08514+P05106)
# Sequence (P05106 27-788 limits assumed): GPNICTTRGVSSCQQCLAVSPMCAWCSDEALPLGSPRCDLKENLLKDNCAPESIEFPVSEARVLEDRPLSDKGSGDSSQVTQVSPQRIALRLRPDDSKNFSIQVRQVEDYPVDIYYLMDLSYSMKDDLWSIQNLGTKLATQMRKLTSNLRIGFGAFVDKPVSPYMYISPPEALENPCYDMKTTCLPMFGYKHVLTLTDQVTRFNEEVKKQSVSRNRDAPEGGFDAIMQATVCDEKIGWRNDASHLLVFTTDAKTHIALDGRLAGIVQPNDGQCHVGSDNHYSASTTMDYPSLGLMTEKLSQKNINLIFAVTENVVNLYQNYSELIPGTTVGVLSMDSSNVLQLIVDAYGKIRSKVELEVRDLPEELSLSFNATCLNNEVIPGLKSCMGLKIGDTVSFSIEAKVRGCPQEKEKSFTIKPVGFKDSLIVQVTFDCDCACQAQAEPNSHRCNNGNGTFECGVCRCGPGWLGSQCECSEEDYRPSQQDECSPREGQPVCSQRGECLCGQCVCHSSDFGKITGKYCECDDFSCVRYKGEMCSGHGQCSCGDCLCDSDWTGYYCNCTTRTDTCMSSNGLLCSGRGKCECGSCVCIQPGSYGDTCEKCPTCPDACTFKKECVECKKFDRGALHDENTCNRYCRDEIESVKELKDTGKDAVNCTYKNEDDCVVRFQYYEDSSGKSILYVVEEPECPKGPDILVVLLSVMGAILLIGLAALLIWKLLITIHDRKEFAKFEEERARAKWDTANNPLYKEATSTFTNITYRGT
# Sequence (P08514 32-887 limits assumed): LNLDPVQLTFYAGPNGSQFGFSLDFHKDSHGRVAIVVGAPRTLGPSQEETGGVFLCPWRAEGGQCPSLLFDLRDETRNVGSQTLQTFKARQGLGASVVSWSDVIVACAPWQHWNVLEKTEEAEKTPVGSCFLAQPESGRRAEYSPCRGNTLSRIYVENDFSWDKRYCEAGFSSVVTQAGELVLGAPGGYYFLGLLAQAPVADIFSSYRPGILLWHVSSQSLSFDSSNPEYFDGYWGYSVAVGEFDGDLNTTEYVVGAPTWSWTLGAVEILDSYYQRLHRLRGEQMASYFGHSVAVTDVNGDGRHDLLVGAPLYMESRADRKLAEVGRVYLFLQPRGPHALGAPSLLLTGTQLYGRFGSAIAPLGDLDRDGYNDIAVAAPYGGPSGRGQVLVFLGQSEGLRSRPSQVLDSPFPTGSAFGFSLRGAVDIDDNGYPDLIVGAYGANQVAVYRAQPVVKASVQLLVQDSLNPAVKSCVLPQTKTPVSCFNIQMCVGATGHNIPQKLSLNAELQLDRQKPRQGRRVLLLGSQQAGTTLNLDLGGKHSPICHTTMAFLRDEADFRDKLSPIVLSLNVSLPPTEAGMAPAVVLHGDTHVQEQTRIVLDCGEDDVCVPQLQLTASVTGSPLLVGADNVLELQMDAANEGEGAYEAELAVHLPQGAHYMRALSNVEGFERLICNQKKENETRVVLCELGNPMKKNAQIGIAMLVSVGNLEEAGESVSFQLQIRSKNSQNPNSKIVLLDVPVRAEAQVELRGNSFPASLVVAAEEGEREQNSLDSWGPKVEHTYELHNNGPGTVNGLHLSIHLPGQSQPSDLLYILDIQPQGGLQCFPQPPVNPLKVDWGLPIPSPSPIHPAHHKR
# Sequence (P08514 891-1039 limits assumed): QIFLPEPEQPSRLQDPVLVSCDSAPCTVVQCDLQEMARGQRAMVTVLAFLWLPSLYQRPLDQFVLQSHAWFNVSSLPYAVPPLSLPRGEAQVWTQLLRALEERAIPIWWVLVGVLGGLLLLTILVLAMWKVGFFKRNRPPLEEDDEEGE
# protocol description: Inhibition of platelet aggregation induced by 20 uM adenosine 5'-diphosphate (ADP) in human platelet rich plasma (h-PRP).
Listed next: entries and their corresponding log10 of IC50.
Quick note: numbers are log10 of IC50, with nM as the unit.

Check out these entries, answers already filled in.
N=C(N)c1ccc2oc(C(=O)N3Cc4ccccc4CC3C(=O)NC(CC(=O)O)c3ccccc3)cc2c1 (centres undefined) :: 3.70
CCCCS(=O)(=O)NC(CNC(=O)CCNC(=O)c1cc2ccc(C(=N)N)cc2[nH]1)C(=O)O (centres undefined) :: 1.74
N=C(N)c1ccc2oc(C(=O)NCCC(=O)NC[C@H](N)C(=O)O)cc2c1 :: 2.30

Please turn your attention to the following entry.
Note to self: log10 of IC50 recorded for N=C(N)c1ccc2c(C(=O)NCCC(=O)NC(CC(=O)O)c3ccccc3)[nH]nc2c1 (centres undefined) was 2.80

// provenance: BindingDB's records for doi:10.1021/jm9704863
